# Tested on: NCI-H322M multicellular tumor spheroids, viability (% test/control)
# protocolDescription: Anticancer human tumor NCI-H322M cell line growth inhibition;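 also: spheroids exposed to compound for seven days before readout; 100% = DMSO vehicle control wells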
# experimentalConditions: second compound 100 µM; first compound 10 µM; hits give low values
# Description: Multicellular complex tumor spheroid response to DNA repair inhibitors in combination with DNA-damaging drugs This study explores the anticancer activities of DNA-damaging drugs and inhibitors of DNA damage repair, both as single agents and in combinations. […] Twenty-six patient-derived or established malignant cell lines were evaluated representing sarcoma, melanoma, small cell lung cancer (SCLC), non-small cell lung cancer (NSCLC), as well as bladder, ovarian and pancreatic cancers. […]
attributeMeasured: viability, T/C (%)

INSERT INTO measurements (compound, unitofmeasure, readoutvalue) VALUES
  ('CC(C)n1c(=O)n(C)c2cnc3cc(F)c(-c4ccc(OCCCN5CCCCC5)nc4)cc3c21 + Cn1nnc2c(C(N)=O)ncn2c1=O', '%', 87),
  ('COc1ccc([C@@H](O)c2cc(-c3ncnc4cc(N5CCOCC5)ccc34)c(F)cc2Cl)nn1 + Cn1nnc2c(C(N)=O)ncn2c1=O', '%', 34.4),
  ('Cc1cc(C)c(CNC(=O)c2cc(-c3ccc(CN4CCOCC4)cc3)cc3c2cnn3C2CCCC2)c(=O)[nH]1 + Cn1nnc2c(C(N)=O)ncn2c1=O', '%', 123),
  ('[2H]c1nc(C)nc([2H])c1-c1cc(NC[C@@H](C)c2cccc3c(C(=O)NC)ccnc23)ncn1 + Cn1nnc2c(C(N)=O)ncn2c1=O', '%', 95.3),
  ('CC1COCCN1c1cc(-c2ccnn2C)c2ccnc(-c3ccn[nH]3)c2n1 (stereo unspecified) + Cn1nnc2c(C(N)=O)ncn2c1=O', '%', 40.6),
  ('COc1cc(C)[nH]c(=O)c1CN1CCc2c(Cl)cc(C(OC)C3COC3)c(Cl)c2C1=O (stereo unspecified) + Cn1nnc2c(C(N)=O)ncn2c1=O', '%', 101);
